# System: HIV-1 variant V106A
# TEST_NAME: Cytopathic cell killing assay, cross-resistance profile, infected MT-4 cells
# Assay type: cell-based
# ASSAY_SETUP: Human immunodeficiency virus 1, MT4, Table 8; isolate V 106A
pEC50: −log10 of the molar value.
VALUE_TYPE: pEC50

Problem: Reported pEC50 for CNc1cccc2c1nc(-c1c(F)cccc1F)n2Cc1c(F)cccc1F : what is it?
Solution: < 4.70

Problem: Next molecule: Fc1cccc(F)c1Cn1c(-c2c(F)cccc2F)nc2c(Cl)cccc21
Solution: < 5.00

Problem: Next molecule: Cc1cccc2c1nc(-c1c(F)cccc1F)n2Cc1c(F)cccc1F
Solution: < 5.00

Problem: Next molecule: Cc1ccnc2c1NC(=O)c1cccnc1N2C1CC1 [nevirapine, reference compound]
Solution: < 5.00

====

Readings of EC50 for the listed molecules
# Test system: HIV-1 variant Y188C
# TEST_NAME: Cytopathic cell killing assay, cross-resistance profile, infected MT-4 cells
# Assay type: cell-based
# ASSAY_SETUP: Human immunodeficiency virus 1, MT4, Table 8; isolate Y 188C

- MOLECULE: "Fc1cccc(F)c1C1SCc2nc3ccccc3n21 (stereo not drawn) [TZB, reference compound]"
  EC50: "> 20 µM"
- MOLECULE: "Cc1ccnc2c1NC(=O)c1cccnc1N2C1CC1 [nevirapine, reference compound]"
  EC50: "> 0.5 µM"

Lab note: next molecule to report on.
Problem: Recall the recorded EC50 for CNc1cccc2c1nc(-c1c(F)cccc1F)n2Cc1c(F)cccc1F with HIV-1 variant Y188C and state it.
Solution: > 20 µM
